# key: entry, value: Population Tubulin-Different-Phenotype (%)
Test system: U2OS
Experiment: Multiplex assay against U2OS
Format: toxicity, cell-based
Conditions: human, 48 h, 1 µM, compound concentration 1 uM, replicate 1

INSERT INTO results (compound, observed_value) VALUES
  ('Oc1c(CN2CCN(c3ccccn3)CC2)cc(Cl)c2cccnc12', '3%'),
  ('Cc1ccc(/C(=C\CN2CCCC2)c2ccccn2)cc1', '3%'),
  ('CC(=O)NCCc1c(Cc2ccccc2)[nH]c2ccccc12', '2%'),
  ('N[C@@]1(C(=O)O)CO[C@H]2[C@H](C(=O)O)[C@H]21', '3%'),
  ('O=C(NCCO)c1cccc(-c2cc(Nc3ccc(OC(F)(F)F)cc3)ncn2)c1', '4%');

Tell me the measured Population Tubulin-Different-Phenotype (%) of CC1(COc2ccc3c(c2)ncn3-c2ccc3cccc(N4CCC(N)CC4)c3n2)COC1 , please. 44%

Any idea what Population Tubulin-Different-Phenotype (%) was measured for Cc1ccc(C(C)(O)c2nc3ccccc3s2)c(C)c1 (centres undefined) ? 2%

So what does the record say about Population Tubulin-Different-Phenotype (%) for C[C@H](NC(=O)c1c(C(F)F)nn(C)c1Oc1cccc(C(F)(F)F)c1)c1ccc(C(=O)O)cc1 ? 1%

I'd like to know its Population Tubulin-Different-Phenotype (%). The compound in question is CC(C)(C)c1ccc(S(=O)(=O)Nc2ccc(Cl)cc2C(=O)c2cc[n+]([O-])cc2)cc1 4%

----------
Recorded Population Fragmented Nuclei (%), one value per entry.
Tested on: HEK-293T
Assay: Multiplex assay against HEK293T
Format: toxicity, cell-based
Conditions: human, 48 h, 10 µM, compound concentration 10 uM, replicate 2
Give the value; after it, write the unit.

Example compounds with recorded Population Fragmented Nuclei (%):
INSERT INTO assay_data (compound, observable, observed_value) VALUES
  ('CCNC1(C(N)=O)CCN(c2ncnc3c2nc(-c2ccccc2Cl)n3-c2ccc(Cl)cc2)CC1', 'Population Fragmented Nuclei (%)', '10%'),
  ('CN(C)c1ccnc2sc3c(=O)n(N4CCCCCC4)cnc3c12', 'Population Fragmented Nuclei (%)', '11%'),
  ('COc1cc(NC(=O)CCN2CCC(OC(=O)Nc3ccccc3-c3ccccc3)CC2)c(Cl)cc1CNC[C@H](O)c1ccc(O)c2[nH]c(=O)ccc12', 'Population Fragmented Nuclei (%)', '11%'),
  ('Cc1ccc(-c2ccc(F)cc2COc2ccc(CCC(=O)O)cc2)cc1', 'Population Fragmented Nuclei (%)', '15%'),
  ('O=C(O)c1cc2ccccc2c(Cc2c(O)c(C(=O)O)cc3ccccc23)c1O', 'Population Fragmented Nuclei (%)', '11%'),
  ('CC(C)(C)c1ccc(S(=O)(=O)Nc2ccc(Cl)cc2C(=O)c2cc[n+]([O-])cc2)cc1', 'Population Fragmented Nuclei (%)', '12%'),
  ('O=S(=O)(c1ccccc1)c1cnc2c(N3CCNCC3)cccc2c1 [INTEPIRDINE]', 'Population Fragmented Nuclei (%)', '11%'),
  ('O=C(NCC(=O)N1CC[C@H](N[C@H]2CC[C@@](O)(c3ccc(-c4ncccn4)cn3)CC2)C1)c1cccc(C(F)(F)F)c1', 'Population Fragmented Nuclei (%)', '11%'),
  ('Cc1nc2ccc(Oc3ccc(F)cc3)cc2c(=O)n1C[C@H]1CCCN(C(C)C)C1.Cl', 'Population Fragmented Nuclei (%)', '17%'),
  ('CC(=O)NCCc1c(Cc2ccccc2)[nH]c2ccccc12', 'Population Fragmented Nuclei (%)', '11%');

For CCOc1c2c(c(OCC)c3ncccc13)CN(c1ccc(CS(=O)(=O)NC(=O)Cc3ccccc3OC)cc1C)C2=O , what is its reported Population Fragmented Nuclei (%)? 12%

Population Fragmented Nuclei (%) lookup needed for CNC[C@H](O)c1ccc(O)c(O)c1 [EPINEPHRINE] , thanks. 17%

Any idea what its Population Fragmented Nuclei (%) is? The compound is O=C(NCCO)c1cccc(-c2cc(Nc3ccc(OC(F)(F)F)cc3)ncn2)c1 16%

Recorded Population Fragmented Nuclei (%) for N#Cc1c(N)nc(SCc2csc(-c3ccc(Cl)cc3)n2)c(C#N)c1-c1ccc(OCCO)cc1 , please? 12%

Could you share which Population Fragmented Nuclei (%) value was measured for COc1cc(C(=O)N(CCCc2ccccc2)Cc2ccc(CC(=O)O)cc2)cc(OC)c1C ? 15%

Dear colleague, I am looking for the recorded Population Fragmented Nuclei (%) of the following compound: Cc1ccc(/C(=C\CN2CCCC2)c2ccccn2)cc1 13%
